target: human P2X2 receptor (hP2X2R) (Homo sapiens, UniProt Q9UBL9); construct: full-length wild-type; assay: cryo-EM structures of ATP-bound homotrimer ([…] and […] Å); EC50 by two-electrode voltage clamp in Xenopus oocytes (divalent-free)
Sequence (Q9UBL9 whole entry): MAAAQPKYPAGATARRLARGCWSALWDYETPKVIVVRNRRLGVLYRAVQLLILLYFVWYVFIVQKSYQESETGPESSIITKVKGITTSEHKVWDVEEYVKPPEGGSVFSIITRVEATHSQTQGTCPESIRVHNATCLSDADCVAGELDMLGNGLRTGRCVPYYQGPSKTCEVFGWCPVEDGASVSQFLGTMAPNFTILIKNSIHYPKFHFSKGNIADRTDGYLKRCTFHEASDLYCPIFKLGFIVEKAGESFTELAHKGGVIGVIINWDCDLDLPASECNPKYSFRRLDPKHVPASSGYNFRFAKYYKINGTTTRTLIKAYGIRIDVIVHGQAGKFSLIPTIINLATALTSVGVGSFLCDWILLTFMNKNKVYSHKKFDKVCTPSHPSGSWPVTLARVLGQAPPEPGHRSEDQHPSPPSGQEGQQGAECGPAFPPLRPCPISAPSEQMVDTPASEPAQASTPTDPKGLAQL
recorded_endpoint: pEC50
The meaning of pEC50 here: minus log10 of the concentration in molar units.

// returns reported pEC50 for input Nc1ncnc2c1ncn2[C@@H]1O[C@H](COP(=O)(O)OP(=O)(O)OP(=O)(O)O)[C@@H](O)[C@H]1O [ATP]
6.81
